Target: Endothelial PAS domain-containing protein 1 (Homo sapiens)
Assay: HIF-1a and HIF-2a reporter inhibitors, SAR follow-up, cell-based, luminescence, MIAPaCa-2, 786-0, panel (AID 652011)
Conditions: MIAPaCa-2/PANC HIF reporter, luciferase luminescence, desferoxamine, overnight, HIF2a PANC, run 2; at 99 µM (top of the series)
The label depends only on inhibition: MET if it is at least -20%, NOT MET if it is smaller.

substance_smiles=CCNC(=O)CCc1nc(-c2ccc(C(C)C)cc2)no1 label_class="NOT MET"

Query block: Would you say CNC(=O)CCc1nc(-c2ccc(OC)cc2)no1 shows inhibition at minimum -20%?
Result block: NOT MET

Query block: Would you say COc1ccccc1NC(=O)CCc1nc(-c2ccc(C(C)(C)C)cc2)no1 shows inhibition at minimum -20%?
Result block: MET

Query block: Would you say CC(C)(C)c1ccc(-c2noc(CCC(=O)Nc3cccnc3)n2)cc1 shows inhibition at minimum -20%?
Result block: MET

Query block: Would you say CC(C)(C)NC(=O)CCc1nc(-c2ccccc2)no1 shows inhibition at minimum -20%?
Result block: MET

Query block: Would you say COC(=O)CCc1nc(-c2ccc(C(C)(C)C)cc2)no1 shows inhibition at minimum -20%?
Result block: MET

----------
Target: Endothelial PAS domain-containing protein 1 (Homo sapiens)
Test: HIF-1a and HIF-2a reporter inhibitors, SAR follow-up, cell-based, luminescence, MIAPaCa-2, 786-0, panel (AID 652011)
Settings: MIAPaCa-2/PANC HIF reporter, luciferase luminescence, desferoxamine, overnight, HIF2a PANC, run 2; at 99 µM (top of the series)
Reported inhibition values are given for each entry in this list.
Numeric answer only, unit % assumed.

Some solved cases for reference:
compound=CCc1ccc(-c2noc(CCC(=O)NC(C)(C)C)n2)cc1 observed_value=-22.9
compound=CC(C)(C)c1ccc(-c2noc(CCC(=O)NC3CC3)n2)cc1 observed_value=50
compound=CCNC(=O)CCc1nc(-c2cccc(C)c2)no1 observed_value=-15.7
compound=CNC(=O)CCc1nc(-c2ccc(C(C)C)cc2)no1 observed_value=8.04
compound=CC(C)c1ccc(-c2noc(CCC(=O)NC(C)(C)C)n2)cc1 observed_value=90
compound=CCNC(=O)CCc1nc(-c2c(Cl)cccc2Cl)no1 observed_value=31.9

Query block: Respond only with inhibition recorded for CCC(C)NC(=O)CCc1nc(-c2ccccc2)no1 (stereo unspecified)
Result block: -3.82

Query block: Respond only with inhibition recorded for COc1cccc(NC(=O)CCc2nc(-c3ccc(C(C)(C)C)cc3)no2)c1
Result block: 131

Query block: Respond only with inhibition recorded for CC(C)(C)c1ccc(-c2noc(CCC(=O)NC3CCCC3)n2)cc1
Result block: 121

Query block: Respond only with inhibition recorded for CC(C)CNC(=O)CCc1nc(-c2ccc(C(C)(C)C)cc2)no1
Result block: 65.5

Query block: Respond only with inhibition recorded for CC(C)c1ccc(-c2noc(CCC(=O)NC3CC3)n2)cc1
Result block: 26.7
